# Conversion to 1,3PDS (%) 0 h values compiled below
experiment: Water stability (conversion of prodrug to 1,3PDS); type: physicochemical; conditions: deionized water, room temperature, 0 h, 200 μg/mL
A number alone suffices; assume %.

compound: COC(=O)c1ccccc1OS(=O)(=O)CCCS(=O)(=O)O [A32(Na)]
Conversion to 1,3PDS (%) 0 h: 0.0
--
compound: CC(C)[C@H](N)C(=O)NCCC(C)(C)COS(=O)(=O)CCCS(=O)(=O)OCC(C)(C)CCNC(=O)[C@@H](N)C(C)C [Compound B14]
Conversion to 1,3PDS (%) 0 h: 0.0

Next item in the queue.
So, CC(OC(=O)NCCC(C)(C)COS(=O)(=O)CCCS(=O)(=O)OCC(C)(C)CCNC(=O)OC(C)OC(=O)C(C)C)OC(=O)C(C)C (stereo not drawn) [Compound B13] ? Its Conversion to 1,3PDS (%) 0 h was 0.3

Measured values drawn from patent US9051248B2 for this set.
